Molecular target: UniProt P11511
Sequence (P11511 whole entry): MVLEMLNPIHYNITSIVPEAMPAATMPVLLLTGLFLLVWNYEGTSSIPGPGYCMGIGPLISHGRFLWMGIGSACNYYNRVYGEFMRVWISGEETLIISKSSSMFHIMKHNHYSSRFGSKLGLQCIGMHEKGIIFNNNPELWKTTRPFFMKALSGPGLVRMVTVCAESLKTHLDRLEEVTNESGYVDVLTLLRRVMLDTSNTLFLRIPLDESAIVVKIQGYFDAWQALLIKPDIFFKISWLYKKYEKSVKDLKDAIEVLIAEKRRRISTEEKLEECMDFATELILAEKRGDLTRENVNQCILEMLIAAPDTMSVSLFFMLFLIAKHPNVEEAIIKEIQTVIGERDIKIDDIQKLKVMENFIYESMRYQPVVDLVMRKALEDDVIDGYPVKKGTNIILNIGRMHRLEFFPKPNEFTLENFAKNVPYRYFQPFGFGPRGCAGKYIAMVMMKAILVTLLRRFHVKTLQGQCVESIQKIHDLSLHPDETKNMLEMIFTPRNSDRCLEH
Please respond with reported Ki for every item in the list.
Unit µM implied. Number only.

Ki reading for C[C@]12CCC3C(CCC4=CC(=O)[C@H]5C[C@H](O)[C@]43C5)C1CCC2=O (single isomer, unassigned) : 0.926

Ki reading for C[C@]12CCC3C(CCC4=CC(=O)[C@H]5C[C@@H](O)[C@]43C5)C1CCC2=O (single isomer, unassigned) : 0.87

Ki reading for C[C@]12CCC3C(CCC4=CC(=O)CC[C@@]43C(O)CBr)C1CCC2=O (single isomer, unassigned; 11a) : 0.027

Ki reading for C[C@]12CCC3C(CCC4=CC(=O)[C@H]5CC[C@]43C5)C1CCC2=O (some centres undefined) : 0.07
